# Test system: HCT-15 colon
# methodSummary: NCI tumour cell line growth inhibition, 48 h
endpointName: TGI

>  <compound>
CC(=O)NNc1nc(C)c(C(/C=C/c2ccc3c(c2)OCO3)=N/Nc2ccccc2)s1

>  <observed>
> 100 µM

$$$$
>  <compound>
CCOC/N=C(/N)NC#N

>  <observed>
45 µM

$$$$
>  <compound>
CC1=C(C(=O)Nc2ccccc2C)C(c2ccccc2)C(C(=O)Nc2ccccc2C)=C(C)N1

>  <observed>
> 100 µM

$$$$
>  <compound>
CN(C)c1ccc(/C=N/Nc2nc3ccccc3c(=O)n2-c2ccccc2)cc1

>  <observed>
> 100 µM

$$$$
>  <compound>
O=C(c1ccc(Cl)cc1)c1ccc(OCC(=O)N2CCN(c3ccccc3)CC2)cc1

>  <observed>
> 100 µM

$$$$
>  <compound>
COc1ccc2[nH]c(C(=O)N3CC(CCl)c4ccc(N)cc43)cc2c1 (stereo unspecified)

>  <observed>
> 50.4 µM

$$$$
>  <compound>
C=C1C(=O)O[C@H]2[C@H]1CC/C(Cn1cc(CNC(=O)Cc3cn(C(=O)c4ccc(Cl)cc4)c4ccc(OC)cc34)nn1)=C\CC[C@@]1(C)O[C@@H]21

>  <observed>
10.7 µM

$$$$
>  <compound>
COc1cc(/C(C#N)=C/c2ccc3c(c2OC)OCO3)cc2c1OCO2

>  <observed>
> 100 µM

$$$$
>  <compound>
O=[N+]([O-])c1ccc(C(c2c[nH]c3ccccc23)c2c[nH]c3ccccc23)cc1

>  <observed>
29.7 µM

$$$$
>  <compound>
COC(=O)Cc1ccc2c(c1)Sc1ccc(CC(=O)OC)cc1N2C

>  <observed>
> 92.6 µM

$$$$
>  <compound>
CCOC(=O)c1ccc(NC(=O)N2CC(C)OC(C)C2)cc1 (stereo unspecified)

>  <observed>
> 100 µM

$$$$
>  <compound>
Cn1c(=O)c2c(nc(NCCCCl)n2CC(=O)O)n(C)c1=O

>  <observed>
> 100 µM

$$$$
>  <compound>
S=C1c2ccccc2NC(=NC2CCCC2)C2CSCN12 (stereo unspecified)

>  <observed>
> 100 µM

$$$$
>  <compound>
O=C(Nc1ccccc1F)c1c(O)nc2sccn2c1=O

>  <observed>
> 10 µM

$$$$
>  <compound>
CC[C@H](C)N(CCN)C(=O)c1cc2ccccc2c(-c2ccccc2Cl)n1

>  <observed>
16.1 µM

$$$$
>  <compound>
O=C(Nc1ccccc1)O/N=C(/CBr)c1ccccc1

>  <observed>
22.2 µM

$$$$
>  <compound>
CN(C)c1ccc(N2C(=S)SC(=Nc3ccccc3)C2=Nc2ccccc2)cc1

>  <observed>
> 100 µM

$$$$
>  <compound>
CC(C)/C(Cl)=N/OC(=O)Nc1ccc(F)c(Cl)c1

>  <observed>
4.16 µM

$$$$
>  <compound>
COc1cc2c(cc1C[N+](C)(C)CSc1ccccc1)-c1ccccc1CC2

>  <observed>
30.2 µM

$$$$
>  <compound>
CCOc1ccccc1NC(=O)C(=O)CC(=O)c1c(C)n([O-])c2ccccc2[n+]1=O

>  <observed>
> 100 µM

$$$$
>  <compound>
COc1cc(-c2nn(-c3ccc(NC(=O)c4ccc(Cl)c(Cl)c4)cc3)cc2-c2ccncc2)ccc1Cl

>  <observed>
> 100 µM

$$$$
>  <compound>
Cc1nc2c(nc1C)C(=O)c1cc(O)ccc1C2=O

>  <observed>
> 67.3 µM

$$$$
>  <compound>
CCC1C(=O)C[C@H]2[C@@H]3C(O)CC4=CC(=O)CC[C@]4(C)[C@H]3CC[C@]12C (stereo partly specified)

>  <observed>
> 50 µM

$$$$
>  <compound>
COc1nc(N(C)O)nc(N(C)O)n1

>  <observed>
> 100 µM

$$$$
>  <compound>
N/N=C(\C(=O)Nc1c(Cl)cc([N+](=O)[O-])cc1Cl)C(c1cnc2ccc([N+](=O)[O-])cc2n1)[N+](=O)[O-] (stereo unspecified)

>  <observed>
> 100 µM

$$$$
>  <compound>
CN(C)c1cccc2c(S(=O)(=O)N[C@H]3CC[C@H]4[C@@H]5CCc6cc(O)ccc6[C@H]5CC[C@]34C)cccc12

>  <observed>
8.38 µM

$$$$
>  <compound>
N=C1C(c2nc(-c3ccc(Br)cc3)cs2)=C(O)CN1Cc1cccnc1

>  <observed>
> 100 µM

$$$$
>  <compound>
C=C1C(=O)O[C@H]2[C@H]1CC/C(COC(=O)c1cc3cc(F)ccc3[nH]1)=C\CC[C@@]1(C)O[C@@H]21

>  <observed>
3.34 µM

$$$$
>  <compound>
COc1ccc2cc(C(=O)/C=C/c3cc(OC)c(OC)c(OC)c3)ccc2c1

>  <observed>
> 50 µM

$$$$
>  <compound>
CC(=O)O[C@H]1CC[C@@]2(C)C(=CC[C@@H]3[C@@H]2CC[C@]2(C)C(c4cccnc4)=CC[C@@H]32)C1

>  <observed>
> 100 µM

$$$$
>  <compound>
COc1ccc(N[C@H](CS(=O)c2ccc(C)cc2)c2ccc(F)cc2)cc1 (stereo partly specified)

>  <observed>
> 100 µM

$$$$
>  <compound>
COc1ccc(CCn2cnc3ccccc32)cc1

>  <observed>
> 100 µM

$$$$
>  <compound>
CCN(CC)Cc1nc2sc3c(c2c(=O)n1-c1ccccc1)CCCC3

>  <observed>
51.7 µM

$$$$
>  <compound>
COc1ccc(N(C(=O)Nc2ccc(Cl)c(Cl)c2)c2ccccc2)cc1

>  <observed>
> 10 µM

$$$$
>  <compound>
CCOC(=O)/C(O)=C1\C(=O)N(C)C(=O)C1c1ccc(OC)c(OC)c1 (stereo unspecified)

>  <observed>
> 100 µM

$$$$
>  <compound>
COc1cc(O)c([C@@H]2C[C@H](CCc3ccc(O)cc3)O[C@H](c3ccc(O)cc3)C2)c(O)c1C(=O)/C=C/c1ccc(O)cc1

>  <observed>
6.88 µM

$$$$
>  <compound>
CCOC(C[Se]CC(OCC)OCC)OCC

>  <observed>
> 100 µM

$$$$
>  <compound>
Cc1ccc2[nH]cc(-c3nc(-c4c[nH]c5ncccc45)cs3)c2c1

>  <observed>
> 100 µM

$$$$
>  <compound>
CC(=O)O/C=C\OC1CCCC1(c1ccccc1)c1ccccc1 (stereo unspecified)

>  <observed>
4.7 µM

$$$$
>  <compound>
Cc1ccc2c(=O)cc(-c3csc4ccccc34)[nH]c2n1

>  <observed>
13.4 µM

$$$$
>  <compound>
CNC(P(=O)([O-])[O-])P(=O)([O-])[O-].N.N.[Pt+2]

>  <observed>
> 100 µM

$$$$

* * *

# Tested on: SNB-75 CNS
# methodSummary: NCI tumour cell line growth inhibition, 48 h; in the data active = GI50 below about 0.43 µM; inactive = the rest
Possible outcomes: class 1 (active), class 0 (inactive)

>  <compound>
Cc1ccc2[nH]cc(-c3nc(-c4c[nH]c5ncccc45)cs3)c2c1

>  <assignedLabel>
class 0

$$$$
>  <compound>
Cc1cc(-c2ncc(CC(=O)Nc3ccc(-c4cnccn4)cn3)cc2C)ccn1

>  <assignedLabel>
class 0

$$$$
>  <compound>
CCOC(=O)c1ccc(NC(=O)N2CC(C)OC(C)C2)cc1 (stereo not drawn)

>  <assignedLabel>
class 0

$$$$
>  <compound>
COc1ccc(-c2nc3sc(C)cn3c2/C=C/C(=O)c2cc(OC)c(OC)c(OC)c2)cc1

>  <assignedLabel>
class 0

$$$$
>  <compound>
COc1ccc2c(c1)/C(=C\c1c(C)nc3sc(C)cn13)C(=O)N2C

>  <assignedLabel>
class 0

$$$$
>  <compound>
CC(=O)Nc1ccc2c(c1)c(C1=C(c3cn(C)c4ccccc34)C(=O)NC1=O)cn2C

>  <assignedLabel>
class 0

$$$$
>  <compound>
COc1ccc2c(c1)[nH]c(=O)c1c3cc(C)c(C)cc3cn21

>  <assignedLabel>
class 1

$$$$
>  <compound>
O=C(CN1CCN(c2ncccn2)CC1)Nc1ccc(Cl)cc1C(=O)c1ccccc1Cl

>  <assignedLabel>
class 0

$$$$
>  <compound>
N#Cc1cn(C2OC(CO)C(O)C2O)c2ncnc(N)c12 (stereo not drawn)

>  <assignedLabel>
class 1

$$$$
>  <compound>
Cc1ccc(CNc2c3ccccc3nc3ccccc23)cc1

>  <assignedLabel>
class 1

$$$$
>  <compound>
COc1ccc(N=C2CSc3nnc(-c4cc(F)c(Cl)cc4Cl)n3N2)cc1

>  <assignedLabel>
class 1

$$$$
>  <compound>
COc1cc(/C(C#N)=C/c2ccc3c(c2OC)OCO3)cc2c1OCO2

>  <assignedLabel>
class 1

$$$$
>  <compound>
CN1CC[C@@H](c2c(O)cc(O)c3c(=O)cc(-c4ccccc4Cl)oc23)[C@@H](O)C1

>  <assignedLabel>
class 1

$$$$

* * *

# Test system: RPMI-8226 leukemia
# methodSummary: NCI tumour cell line growth inhibition, 48 h; in the data active means GI50 below about 0.43 µM; inactive means the rest
Labels: active, inactive

>  <compound>
COc1ccc2c(c1)/C(=C\c1c(C)nc3sc(C)cn13)C(=O)N2C

>  <assignedLabel>
inactive

$$$$
>  <compound>
C=C1C(=O)O[C@H]2[C@H]1CC/C(COC(=O)c1cc3cc(F)ccc3[nH]1)=C\CC[C@@]1(C)O[C@@H]21

>  <assignedLabel>
inactive

$$$$
>  <compound>
ClCc1cccc(Cn2cnc3c(Cl)ncnc32)c1

>  <assignedLabel>
inactive

$$$$
>  <compound>
O=C1NCc2ccc3c(-c4cccc(Cl)c4)c[nH]c3c21

>  <assignedLabel>
active

$$$$
>  <compound>
CN(C)c1cccc2c(S(=O)(=O)N[C@H]3CC[C@H]4[C@@H]5CCc6cc(O)ccc6[C@H]5CC[C@]34C)cccc12

>  <assignedLabel>
inactive

$$$$
>  <compound>
COc1ccc(C(=O)/C(Br)=C/C(=O)O)cc1

>  <assignedLabel>
inactive

$$$$
>  <compound>
COc1nc(N(C)O)nc(N(C)O)n1

>  <assignedLabel>
inactive

$$$$
>  <compound>
N#Cc1c(Sc2ccccc2N)cccc1Sc1ccccc1N

>  <assignedLabel>
inactive

$$$$
>  <compound>
C=C1CC2(OC1=O)C(=O)N(CCCCCCCN1C(=O)C3(CC(=C)C(=O)O3)c3ccccc31)c1ccccc12 (stereo not given)

>  <assignedLabel>
inactive

$$$$
>  <compound>
CCC[CH2][Sn-]([CH2]CCC)([CH2]CCC)[O]c1cc(Cl)c(Cl)cc1Cl

>  <assignedLabel>
active

$$$$
